system_name: HLA-B*07:02
assay_info: IEDB peptide-MHC binding, purified MHC/competitive/radioactivity; filed as Kd, often an IC50 or EC50 that approximates it; bounds were set here for any values at or beyond the usual limits of such assays
condition_info: source organism: Triticum aestivum
Recorded Kd for the following sequences

{"columns": ["chain_sequence", "Kd"],
 "data": [
  ["IPCMDVVL", "≥ 40.4 µM"],
  ["QPFPPQQPY", "≥ 77.5 µM"],
  ["YPQPQPQY", "≥ 87.3 µM"]
]}

---

system_name: HLA-A*32:01
assay_info: IEDB peptide-MHC binding, purified MHC/competitive/radioactivity; filed as Kd, often an IC50 or EC50 that approximates it; bounds were set here for any values at or beyond the usual limits of such assays
condition_info: source organism: Dengue virus 3 Martinique/1243/1999
Recorded Kd for the following sequences
measured_metric: Kd

{"columns": ["chain_sequence", "system_name", "test_result"],
 "data": [
  ["RSLIGNEEF", "HLA-A*32:01", "4.65 µM"],
  ["DTRTQTWMSA", "HLA-A*32:01", "5.74 µM"]
]}

---

system_name: HLA-B*35:01
assay_info: IEDB peptide-MHC binding, purified MHC/competitive/fluorescence; filed as Kd, often an IC50 or EC50 that approximates it; bounds were set here for any values at or beyond the usual limits of such assays
condition_info: source organism: Human immunodeficiency virus 1
pKd: −log10 of the molar value.

{"columns": ["chain_sequence", "pKd"],
 "data": [
  ["LYNTIAVLY", 5.73]
]}

---

system_name: HLA-A*30:01
assay_info: IEDB peptide-MHC binding, purified MHC/direct/fluorescence; filed as Kd, often an IC50 or EC50 that approximates it; bounds were set here for any values at or beyond the usual limits of such assays
condition_info: source organism: Pseudomonas aeruginosa
pKd: −log10 of the molar value.

{"columns": ["chain_sequence", "pKd"],
 "data": [
  ["SPADERAVA", 5.08]
]}

---

system_name: HLA-A*02:19
assay_info: IEDB peptide-MHC binding, purified MHC/competitive/fluorescence; filed as Kd, often an IC50 or EC50 that approximates it; bounds were set here for any values at or beyond the usual limits of such assays
condition_info: source organism: Entamoeba histolytica HM-1:IMSS
measured_metric: Kd

{"columns": ["chain_sequence", "test_result"],
 "data": [
  ["KVSVGSYFC", "≥ 20 µM"]
]}

---

system_name: HLA-B*08:01
assay_info: IEDB peptide-MHC binding, purified MHC/direct/fluorescence; filed as Kd, often an IC50 or EC50 that approximates it; bounds were set here for any values at or beyond the usual limits of such assays
condition_info: source organism: Camelpox virus M-96

{"columns": ["chain_sequence", "Kd"],
 "data": [
  ["SQEDNHFSL", "≥ 20 µM"]
]}

---

system_name: HLA-B*15:01
assay_info: IEDB peptide-MHC binding, purified MHC/direct/fluorescence; filed as Kd, often an IC50 or EC50 that approximates it; bounds were set here for any values at or beyond the usual limits of such assays
condition_info: source organism: Giardia lamblia ATCC 50803
measured_metric: Kd (nM)

{"columns": ["chain_sequence", "system_name", "measured_metric", "bound_sign", "test_result"],
 "data": [
  ["IPRQWHPFA", "HLA-B*15:01", "Kd", "≥", 20000],
  ["QLKQRDALF", "HLA-B*15:01", "Kd", "=", 27],
  ["HSSVAGGLW", "HLA-B*15:01", "Kd", "≥", 20000],
  ["LERIKANIF", "HLA-B*15:01", "Kd", "=", 918]
]}

---

system_name: HLA-B*45:01
assay_info: IEDB peptide-MHC binding, purified MHC/competitive/radioactivity; filed as Kd, often an IC50 or EC50 that approximates it; bounds were set here for any values at or beyond the usual limits of such assays
condition_info: source organism: Mammarenavirus lassaense
pKd: −log10 of the molar value.

{"columns": ["chain_sequence", "system_name", "bound_sign", "pKd"],
 "data": [
  ["NENPGGYCL", "HLA-B*45:01", "=", 6.75],
  ["GEPKMTKAL", "HLA-B*45:01", "≤", 4.17],
  ["EELITDVEFL", "HLA-B*45:01", "=", 4.75],
  ["YDFVLVGPC", "HLA-B*45:01", "=", 5.14]
]}

---

system_name: HLA-B*07:02
assay_info: IEDB peptide-MHC binding, purified MHC/direct/fluorescence; filed as Kd, often an IC50 or EC50 that approximates it; bounds were set here for any values at or beyond the usual limits of such assays
condition_info: source organism: Haemophilus influenzae
pKd: −log10 of the molar value.

{"columns": ["chain_sequence", "pKd"],
 "data": [
  ["LIFPAFFLC", "≤ 4.70"]
]}

---

system_name: HLA-A*11:01
assay_info: IEDB peptide-MHC binding, purified MHC/competitive/radioactivity; filed as Kd, often an IC50 or EC50 that approximates it; bounds were set here for any values at or beyond the usual limits of such assays
condition_info: source organism: Dengue virus 2 Jamaica/1409/1983
pKd: −log10 of the molar value.
Recorded pKd for the following sequences
measured_metric: pKd

{"columns": ["chain_sequence", "measured_metric", "test_result"],
 "data": [
  ["MANEMGFLEK", "pKd", 6.28],
  ["GVFTTNIWLK", "pKd", 7.39]
]}

---

system_name: HLA-A*29:02
assay_info: IEDB peptide-MHC binding, purified MHC/direct/fluorescence; filed as Kd, often an IC50 or EC50 that approximates it; bounds were set here for any values at or beyond the usual limits of such assays
condition_info: source organism: Orthohantavirus tulaense
pKd: −log10 of the molar value.

{"columns": ["chain_sequence", "system_name", "pKd"],
 "data": [
  ["RRAYSGKQY", "HLA-A*29:02", "≤ 4.70"]
]}

---

system_name: HLA-A*02:01
assay_info: IEDB peptide-MHC binding, purified MHC/competitive/fluorescence; bounds were set here for any values at or beyond the usual limits of such assays
condition_info: source organism: Vaccinia virus
Recorded IC50 for the following sequences
measured_metric: IC50

{"columns": ["chain_sequence", "measured_metric", "test_result"],
 "data": [
  ["VLNGAELSN", "IC50", "≥ 114 µM"],
  ["LLFGIKCIK", "IC50", "0.914 µM"],
  ["NLSPETLVG", "IC50", "≥ 170 µM"]
]}

---

system_name: HLA-B*44:03
assay_info: IEDB peptide-MHC binding, purified MHC/competitive/radioactivity; filed as Kd, often an IC50 or EC50 that approximates it; bounds were set here for any values at or beyond the usual limits of such assays
condition_info: source organism: Dengue virus 2 16681-PDK53
measured_metric: Kd (µM)

{"columns": ["chain_sequence", "test_result"],
 "data": [
  ["NKAWLVHRQW", 4.09]
]}

---

system_name: HLA-A*11:01
assay_info: IEDB peptide-MHC binding, purified MHC/competitive/fluorescence; filed as Kd, often an IC50 or EC50 that approximates it; bounds were set here for any values at or beyond the usual limits of such assays
condition_info: source organism: Dengue virus 2 Thailand/NGS-C/1944
measured_metric: Kd (nM)

{"columns": ["chain_sequence", "test_result"],
 "data": [
  ["KTFVDLMRR", 12.3]
]}

---

system_name: HLA-B*18:01
assay_info: IEDB peptide-MHC binding, purified MHC/competitive/radioactivity; filed as Kd, often an IC50 or EC50 that approximates it; bounds were set here for any values at or beyond the usual limits of such assays
condition_info: source organism: Mammarenavirus lassaense

{"columns": ["chain_sequence", "system_name", "bound_sign", "Kd (µM)"],
 "data": [
  ["EELITDVEFL", "HLA-B*18:01", "=", 19],
  ["GEPKMTKAL", "HLA-B*18:01", "≥", 77.5],
  ["NENPGGYCL", "HLA-B*18:01", "=", 0.0731],
  ["YDFVLVGPC", "HLA-B*18:01", "≥", 24]
]}

---

system_name: HLA-A*02:06
assay_info: IEDB peptide-MHC binding, purified MHC/competitive/radioactivity; filed as Kd, often an IC50 or EC50 that approximates it; bounds were set here for any values at or beyond the usual limits of such assays
condition_info: source organism: SARS coronavirus Tor2
pKd: −log10 of the molar value.
Label 1.0 when pKd is at or above 7; otherwise label 0.0.

{"columns": ["chain_sequence", "system_name", "label"],
 "data": [
  ["LLLSICLGSL", "HLA-A*02:06", 0.0],
  ["FLLNKEMYL", "HLA-A*02:06", 1.0],
  ["ITMTTVYHI", "HLA-A*02:06", 1.0],
  ["ALLFLMSFTI", "HLA-A*02:06", 1.0],
  ["FLTSLLILV", "HLA-A*02:06", 1.0],
  ["FLFLAWIMLL", "HLA-A*02:06", 0.0]
]}
